molecular target: Sting protein (Homo sapiens, UniProt Q86WV6, G230A/H232R/R293Q/R71H); construct: endogenous in cells; host or cells: THP1 cells (Shanghai Cell Bank); assay: Agonistic function test on Sting protein: IFN-β and CXCL10 (IP10) cytokines produced by THP1 cells (ELISA); format: cell-based; conditions: 18 hours, ELISA of supernatant, read-out: IFN-β EC50
Sequence (Q86WV6 whole entry R71H/G230A/H232R/R293Q): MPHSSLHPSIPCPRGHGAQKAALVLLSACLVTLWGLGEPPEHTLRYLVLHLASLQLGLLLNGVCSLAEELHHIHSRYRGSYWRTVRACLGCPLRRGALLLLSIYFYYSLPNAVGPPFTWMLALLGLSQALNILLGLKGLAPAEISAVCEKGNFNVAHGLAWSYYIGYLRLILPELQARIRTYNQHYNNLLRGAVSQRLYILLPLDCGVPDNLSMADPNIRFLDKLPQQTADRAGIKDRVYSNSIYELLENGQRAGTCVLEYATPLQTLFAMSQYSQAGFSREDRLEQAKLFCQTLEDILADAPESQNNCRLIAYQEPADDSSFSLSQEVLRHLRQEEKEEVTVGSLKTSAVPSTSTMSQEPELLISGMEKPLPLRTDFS
pEC50: −log10 of the molar value.
Property: pEC50; scope: individual compounds

Before answering, review these 5 worked examples.
Q) Provide the documented pEC50 with Sting protein (Homo sapiens, UniProt Q86WV6, G230A/H232R/R293Q/R71H) as the system for CCc1nc(C)sc1C(=O)Nc1nc2cc(C(N)=O)cc(OCCCN3CCN(C(C)C)CC3)c2n1C/C=C/Cn1c(NC(=O)c2cc(C)nn2CC)nc2cc(C(N)=O)cc(OC)c21 [Example 9]
A) 6.00 to 7.00

Q) Queued: CCc1nc(C)sc1C(=O)Nc1nc2cc(C(N)=O)cc(SC)c2n1C/C=C/Cn1c(NC(=O)c2cc(C)nn2CC)nc2cc(C(N)=O)cc(OCCCN3CCN(C(C)=O)CC3)c21 [Example 41]
A) 6.00 to 7.00

Q) Queued: CCc1nc(C)sc1C(=O)Nc1nc2cc(C(N)=O)cc(SC)c2n1C/C=C/Cn1c(NC(=O)c2cc(C)nn2CC)nc2cc(C(N)=O)cc(OCCCN3CCN(C4CC4)CC3)c21 [Example 23]
A) 7.00 to 8.00

Q) Queued: CCc1nc(C)sc1C(=O)Nc1nc2cc(C(N)=O)cc(SC)c2n1C/C=C/Cn1c(NC(=O)c2c(F)c(C)nn2CC)nc2cc(C(N)=O)cc(OCCCN3CCOCC3)c21 [Example 52]
A) 7.00 to 8.00

Q) Queued: CCc1nc(C)sc1C(=O)Nc1nc2cc(C(N)=O)cc(OCCCN3CCN(C(C)=O)CC3)c2n1C/C=C/Cn1c(NC(=O)c2cc(C)nn2CC)nc2cc(C(N)=O)cc(OC)c21 [Example 11]
A) 6.00 to 7.00

Others:
Q) Provide the documented pEC50 with Sting protein (Homo sapiens, UniProt Q86WV6, G230A/H232R/R293Q/R71H) as the system for CCc1nc(C)sc1C(=O)Nc1nc2cc(C(N)=O)cc(SC)c2n1C/C=C/Cn1c(NC(=O)c2cc(C)nn2CC)nc2cc(C(N)=O)cc(OCCCN3CCN(CC)CC3)c21 [Example 21]
A) 6.00 to 7.00

Q) Queued: CCc1nc(C)sc1C(=O)Nc1nc2cc(C(N)=O)cc(OC)c2n1C/C=C/Cn1c(NC(=O)c2cc(C)nn2CC)nc2cc(C(N)=O)cc(SCCCN3CCOCC3)c21 [Example 6]
A) 6.00 to 7.00

Q) Queued: CCc1nc(C)sc1C(=O)Nc1nc2cc(C(N)=O)cc(OC)c2n1C/C=C/Cn1c(NC(=O)c2cc(C)nn2CC)nc2cc(C(N)=O)cc(OCCCN3CCN(C(C)C)CC3)c21 [Example 14]
A) 6.00 to 7.00

Q) Queued: CCc1nc(C)sc1C(=O)Nc1nc2cc(C(N)=O)cc(OCCCN3CCN(C)CC3)c2n1C/C=C/Cn1c(NC(=O)c2cc(C)nn2CC)nc2cc(C(N)=O)cc(OC)c21 [Example 7]
A) 6.00 to 7.00

Q) Queued: CCc1nc(C)sc1C(=O)Nc1nc2cc(C(N)=O)cc(SC)c2n1C/C=C/Cn1c(NC(=O)c2cc(C)nn2CC)nc2cc(C(N)=O)cc(OCCCN3CCN(C(C)C)CC3)c21 [Example 22]
A) 6.00 to 7.00

Q) Queued: CCc1nc(C)sc1C(=O)Nc1nc2cc(C(N)=O)cc(SC)c2n1C/C=C/Cn1c(NC(=O)c2cc(C)nn2CC)nc2cc(C(N)=O)cc(OCCCN3CCN(C)CC3)c21 [Example 20]
A) 6.00 to 7.00
